Examples of molecules with documented pEC50 follow.
- Tested on: Bmi-1 protein
- measurementNotes: Sandwich ELISA Assay: Bmi-1 protein level in HT-1080 cells treated with test compounds
- Type: cell-based
pEC50: −log10 of the molar value.

Req: Form: Entry = CCc1nc2ccc(F)cc2n1-c1nc(N)nc(Nc2ccc(OC(F)(F)F)cc2)n1 [Cpd 171] | System = Bmi-1 protein | pEC50 = ____
Resp: 5.52 to 7.00

----------
Examples of compounds with documented EC50 follow.
- Test system: Bmi-1 protein
- measurementNotes: Sandwich ELISA Assay: Bmi-1 protein level in HT-1080 cells treated with test compounds
- Type: cell-based

Some solved cases for reference:
CCc1nc2c(F)cccc2n1-c1nc(N)nc(Nc2ccc(OC)cc2)n1	1 to 10 nM
Cc1ccc(Nc2nc(N)nc(-n3c(C)nc4ccccc43)n2)cc1	1 to 10 nM
Cc1nc2ncc(Br)cc2n1-c1nc(N)nc(Nc2ccc(OC(F)F)cc2)n1	10 to 100 nM
Nc1nc(Nc2ccc(Cl)cc2)nc(-n2c(C3CC3)nc3ccccc32)n1	10 to 100 nM
Nc1nc(Nc2ccc(Cl)cc2)nc(-n2c(C3CC3)nc3cc(F)ccc32)n1	100 to 3000 nM

Req: // lookup EC50 for CCc1nc2c(F)cccc2n1-c1nc(N)nc(Nc2ccc(Cl)c(F)c2)n1
Resp: 10 to 100 nM

Req: // lookup EC50 for Nc1nc(Nc2ccc(OC(F)F)cc2)nc(-c2c(C(F)(F)F)nc3ccccn23)n1
Resp: 10 to 100 nM

Req: // lookup EC50 for Cc1nc2ccccc2n1-c1nncc(Nc2ccc(OC(F)F)cc2)n1
Resp: 10 to 100 nM

Req: // lookup EC50 for Nc1nc(Nc2ccc(OC(F)F)cc2)nc(-n2c(C(F)F)nc3ccccc32)n1
Resp: 10 to 100 nM

Req: // lookup EC50 for Cc1nc2cc(F)c(F)cc2n1-c1nc(N)nc(Nc2ccc(Cl)cc2)n1
Resp: 100 to 3000 nM

Req: // lookup EC50 for CCc1nn2ccccc2c1-c1nc(N)nc(Nc2ccc(OC(F)F)cc2)n1
Resp: 100 to 3000 nM

----------
- Test system: Bmi-1 protein
- measurementNotes: Sandwich ELISA Assay: Bmi-1 protein level in HT-1080 cells treated with test compounds
- Type: cell-based
measureName: EC50

Cc1nc2ncc(Cl)cc2n1-c1nc(N)nc(Nc2ccc(C(F)(F)F)cc2)n1	10 to 100 nM

Req: Form: Entry = Cc1nc2cc(F)ccc2n1-c1nc(N)nc(Nc2ccc(C(F)(F)F)nc2)n1 | System = Bmi-1 protein | EC50 = ____
Resp: 100 to 3000 nM

Req: Form: Entry = Nc1nc(Nc2ccc(C(F)(F)F)cc2)nc(-c2c(C(F)(F)F)nc3ccccn23)n1 | System = Bmi-1 protein | EC50 = ____
Resp: 10 to 100 nM

Req: Form: Entry = Cc1ccc(Nc2nc(N)nc(-n3c(C)nc4ccc(F)cc43)n2)cc1 | System = Bmi-1 protein | EC50 = ____
Resp: 1 to 10 nM

Req: Form: Entry = CCc1nc2ccc(F)cc2n1-c1nc(N)nc(Nc2ccc(C)cc2)n1 | System = Bmi-1 protein | EC50 = ____
Resp: 1 to 10 nM

Req: Form: Entry = Nc1nc(Nc2ccc(OC(F)F)c(F)c2)nc(-n2c(C3CC3)nc3cc(F)ccc32)n1 | System = Bmi-1 protein | EC50 = ____
Resp: 100 to 3000 nM

Req: Form: Entry = Cc1ccc(Nc2nc(N)nc(-n3c(C4CC4)nc4c(F)cccc43)n2)cc1 | System = Bmi-1 protein | EC50 = ____
Resp: 10 to 100 nM

Req: Form: Entry = CCc1nc2ccc(F)cc2n1-c1cnnc(Nc2ccc(OC(F)F)cc2)n1 | System = Bmi-1 protein | EC50 = ____
Resp: 100 to 3000 nM

----------
- System: Bmi-1 protein
- measurementNotes: Sandwich ELISA Assay: Bmi-1 protein level in HT-1080 cells treated with test compounds
- Type: cell-based
pEC50: −log10 of the molar value.
Examples of molecules with documented pEC50 follow.

Cc1nc2ccccc2n1-c1nc(N)nc(Nc2cc3ccccc3cn2)n1	7.00 to 8.00
CCc1nc2ncc(F)cc2n1-c1nc(N)nc(Nc2ccc(C(F)(F)F)cc2)n1	7.00 to 8.00

Req: // lookup pEC50 for CCc1nc2ccccc2n1-c1nc(N)nc(Nc2ccc(C#N)cc2)n1
Resp: 5.52 to 7.00

Req: // lookup pEC50 for Cc1nc2ccc(F)cc2n1-c1nncc(Nc2ccc(C(F)(F)F)cc2)n1
Resp: 5.52 to 7.00

Req: // lookup pEC50 for Cc1nn2ccccc2c1-c1nc(N)nc(Nc2ccc(OC(F)F)cc2)n1
Resp: 5.52 to 7.00

----------
Examples of compounds with documented pEC50 follow.
- System: Bmi-1 protein
- measurementNotes: Sandwich ELISA Assay: Bmi-1 protein level in HT-1080 cells treated with test compounds
- Type: cell-based
pEC50: −log10 of the molar value.

Req: // lookup pEC50 for CCc1nc2ccccc2n1-c1nc(N)nc(Nc2ccc(Cl)c(F)c2)n1
Resp: 7.00 to 8.00

Req: // lookup pEC50 for Cc1ccc(Nc2nc(N)nc(-n3c(C4CC4)nc4ccccc43)n2)cc1
Resp: 8.00 to 9.00

Req: // lookup pEC50 for CCc1nc2c(F)cc(F)cc2n1-c1nc(N)nc(Nc2ccc(Br)cc2)n1
Resp: 8.00 to 9.00

Req: // lookup pEC50 for Nc1nc(Nc2ccc(OC(F)F)cc2)nc(-n2c(CO)nc3ccccc32)n1
Resp: 5.52 to 7.00

----------
- Test system: Bmi-1 protein
- measurementNotes: Sandwich ELISA Assay: Bmi-1 protein level in HT-1080 cells treated with test compounds
- Format: cell-based
pEC50: −log10 of the molar value.
measureName: pEC50

Some solved cases for reference:
Cc1ccc(Nc2nc(N)nc(-n3c(C)nc4cc(F)c(F)cc43)n2)cc1	7.00 to 8.00
Nc1nc(Nc2ccc(C(F)(F)F)cc2)nc(-n2c(C3CC3)nc3c(F)cccc32)n1	7.00 to 8.00
Cc1nc2ccccc2n1-c1nc(N)nc(Nc2ccc(Br)cc2)n1	8.00 to 9.00

Req: // lookup pEC50 for Cc1nc2c(F)cccc2n1-c1nc(N)nc(Nc2ccc(Br)cc2)n1
Resp: 7.00 to 8.00

Req: // lookup pEC50 for Cc1nc2ccc(F)cc2n1-c1nc(N)nc(Nc2ccc(OC(F)(F)F)cc2)n1
Resp: 5.52 to 7.00

Req: // lookup pEC50 for Cc1nc2ccc(F)cc2n1-c1nc(N)nc(Nc2ccc(Br)cc2)n1
Resp: 7.00 to 8.00

Req: // lookup pEC50 for Cc1nc2ncccc2n1-c1nc(N)nc(Nc2ccc(C(F)(F)F)cc2)n1
Resp: 5.52 to 7.00

Req: // lookup pEC50 for CCc1nc2cc(F)ccc2n1-c1nc(N)nc(Nc2ccc(C)cc2)n1
Resp: 7.00 to 8.00

Req: // lookup pEC50 for Nc1nc(Nc2ccc(OC(F)F)c(F)c2)nc(-n2c(CF)nc3ccccc32)n1
Resp: 7.00 to 8.00

----------
- Test system: Bmi-1 protein
- measurementNotes: Sandwich ELISA Assay: Bmi-1 protein level in HT-1080 cells treated with test compounds
- Type: cell-based
measureName: EC50

CCc1nc2c(F)cccc2n1-c1nc(N)nc(Nc2ccc(Cl)cc2)n1 [Cpd 214]	10 to 100 nM
CCc1nc2c(F)cccc2n1-c1nc(N)nc(Nc2ccc(SC)cc2)n1 [Cpd 227]	1 to 10 nM

Req: // lookup EC50 for Cc1nc2ccccc2n1-c1nc(N)nc(Nc2ccc(C(F)(F)F)nc2)n1 [Cpd 51]
Resp: 10 to 100 nM

Req: // lookup EC50 for N#CCc1nc2ccccc2n1-c1nc(N)nc(Nc2ccc(OC(F)F)c(F)c2)n1 [Cpd 122]
Resp: 100 to 3000 nM

Req: // lookup EC50 for Nc1nc(Nc2ccc(C(F)(F)F)cc2)nc(-n2c(C(F)F)nc3ccccc32)n1 [Cpd 102]
Resp: 10 to 100 nM

----------
Examples of compounds with documented melting point follow.

Some solved cases for reference:
Nc1nc(Nc2ccc(C(F)(F)F)cc2)nc(-n2c(C(F)F)nc3ccccc32)n1 [Cpd 102]	197 to 199 °C
Nc1nc(Nc2ccc(OC(F)F)cc2)nc(-n2c(CF)nc3ccccc32)n1 [Cpd 108]	166 to 168 °C
Nc1nc(Nc2ccc(OC(F)F)nc2)nc(-n2c(C3CC3)nc3c(F)cc(F)cc32)n1 [Cpd 91]	128 to 130 °C

Req: // lookup melting point for Nc1nc(Nc2ccc(OC(F)F)cc2)nc(-n2c(C3CC3)nc3c(F)cc(F)cc32)n1 [Cpd 89]
Resp: 181 to 183 °C

Req: // lookup melting point for Nc1nc(Nc2ccc(OC(F)(F)F)cc2)nc(-n2c(C3CC3)nc3c(F)cc(F)cc32)n1 [Cpd 92]
Resp: 213 to 215 °C
